Source: patent US7943584B2

Sequence of the target: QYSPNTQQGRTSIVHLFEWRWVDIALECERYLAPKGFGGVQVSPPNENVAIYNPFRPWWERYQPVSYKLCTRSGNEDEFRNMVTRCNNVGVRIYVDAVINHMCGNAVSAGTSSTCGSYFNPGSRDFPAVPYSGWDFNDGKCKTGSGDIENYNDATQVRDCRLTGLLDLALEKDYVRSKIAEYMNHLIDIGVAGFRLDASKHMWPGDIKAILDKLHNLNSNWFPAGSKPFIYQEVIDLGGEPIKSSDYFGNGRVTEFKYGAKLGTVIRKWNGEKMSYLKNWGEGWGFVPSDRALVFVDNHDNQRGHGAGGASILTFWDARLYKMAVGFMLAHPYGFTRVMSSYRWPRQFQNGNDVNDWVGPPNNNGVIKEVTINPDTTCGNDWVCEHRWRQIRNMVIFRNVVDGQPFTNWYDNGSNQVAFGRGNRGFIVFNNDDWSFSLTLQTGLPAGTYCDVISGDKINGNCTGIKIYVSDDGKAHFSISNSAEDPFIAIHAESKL
PROPERTY: pIC50
Would you please state pIC50, meaning minus log10 of the concentration in mol/L, as a bare number?

The recorded pIC50 for entry COC[C@H]1O[C@@H](O[C@H]2[C@H](O)[C@@H](O)C(O[C@H]3[C@H](O)CN[C@@H]3CO)O[C@@H]2CO)[C@H](O)[C@@H](O)[C@@H]1O (stereo partly shown) [Reference Example 8] equals 6.07
